Source: paper PMC11522000

experiment: Stability in intestinal S9 fraction; type: in vitro ADME, calf; details: bovine

molecular-string	half-life (min)
CNC(=O)c1ccc(-c2cnn3ccc(C(=O)N(C)c4ccc(Cl)c(C(=O)OC)c4)cc23)cc1	175

###

experiment: In vivo pharmacokinetic analysis; conditions: male, Beagle, dog, plasma, po, 0.3 mg/kg
metric-name: Cmax (nM)

molecular-string	metric-name	observed-result
CNC(=O)c1ccc(-c2cnn3ccc(C(=O)N(C)c4ccc(Cl)c(C(=O)O)c4)cc23)cc1	Cmax	2
CNC(=O)c1ccc(-c2cnn3ccc(C(=O)N(C)c4ccc(Cl)c(C(=O)OC)c4)cc23)cc1	Cmax	5.2

###

target: CpPI(4)K (Cryptosporidium parvum); assay: PI; type: biochemical, C. parvum; conditions: CpPI(4)K IC50, 3 μM ATP
Sequence (Q5CVD3 1-1114): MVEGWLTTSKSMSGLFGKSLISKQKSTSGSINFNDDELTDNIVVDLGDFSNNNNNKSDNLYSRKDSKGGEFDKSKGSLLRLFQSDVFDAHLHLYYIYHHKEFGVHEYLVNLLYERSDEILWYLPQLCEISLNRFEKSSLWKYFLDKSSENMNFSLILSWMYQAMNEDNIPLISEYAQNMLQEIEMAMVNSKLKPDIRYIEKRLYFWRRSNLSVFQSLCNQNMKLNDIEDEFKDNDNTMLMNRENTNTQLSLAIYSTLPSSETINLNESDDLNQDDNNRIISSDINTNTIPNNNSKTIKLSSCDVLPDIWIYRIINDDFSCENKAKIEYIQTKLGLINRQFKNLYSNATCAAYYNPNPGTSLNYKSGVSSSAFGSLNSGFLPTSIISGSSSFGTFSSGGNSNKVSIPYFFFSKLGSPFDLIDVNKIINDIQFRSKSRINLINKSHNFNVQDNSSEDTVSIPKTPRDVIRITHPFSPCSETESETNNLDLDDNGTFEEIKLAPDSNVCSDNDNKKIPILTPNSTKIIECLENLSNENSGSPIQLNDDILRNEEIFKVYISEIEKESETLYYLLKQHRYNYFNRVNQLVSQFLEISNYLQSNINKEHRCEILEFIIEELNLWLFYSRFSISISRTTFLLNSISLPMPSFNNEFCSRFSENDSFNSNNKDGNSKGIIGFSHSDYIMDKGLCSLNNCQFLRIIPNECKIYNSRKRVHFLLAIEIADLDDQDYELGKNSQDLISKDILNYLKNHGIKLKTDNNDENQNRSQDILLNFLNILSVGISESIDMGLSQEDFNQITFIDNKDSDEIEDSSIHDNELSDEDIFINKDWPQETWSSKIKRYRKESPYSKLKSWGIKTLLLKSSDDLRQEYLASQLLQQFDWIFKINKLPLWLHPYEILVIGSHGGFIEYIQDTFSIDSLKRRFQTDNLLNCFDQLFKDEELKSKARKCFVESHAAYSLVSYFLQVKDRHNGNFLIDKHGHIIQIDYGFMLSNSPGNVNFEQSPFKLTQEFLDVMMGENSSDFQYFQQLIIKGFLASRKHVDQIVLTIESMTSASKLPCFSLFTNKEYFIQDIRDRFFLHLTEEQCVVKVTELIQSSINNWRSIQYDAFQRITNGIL
The entries below come with measured IC50 values attached.

compound	units-label	IC50
CNC(=O)c1ccc(-c2cnn3ccc(C(=O)N(C)c4ccc(Cl)c(C(=O)O)c4)cc23)cc1 [Compound 6]	nM	31
CN(C(=O)c1ccn2ncc(-c3ccc(C(N)=O)cc3)c2c1)c1ccc(C#N)cn1 [KDU731, reference compound]	nM	17
CNC(=O)c1ccc(-c2cnn3ccc(C(=O)N(CCC(=O)OCC(=O)N(C)C)c4ccc(Cl)cc4)cc23)cc1 [Compound 3]	nM	5

###

test: In vivo pharmacokinetic analysis; settings: male, Beagle, dog, plasma, po, 0.3 mg/kg

molecular-string	Tmax
CNC(=O)c1ccc(-c2cnn3ccc(C(=O)N(C)c4ccc(Cl)c(C(=O)OC)c4)cc23)cc1	45 min

###

test: Liver microsomes metabolic stability; type: in vitro ADME; settings: mouse, liver microsomes
metric-name: microsomal CLint

molecule	observed-result
CNC(=O)c1ccc(-c2cnn3ccc(C(=O)N(C)c4ccc(Cl)c(C(=O)OC)c4)cc23)cc1 [EDI048]	> 700 µL/min/mg

###

Tmax for assorted molecules
assay: 2 weeks GLP dog toxicology study with toxicokinetics; assay type: in vivo; details: both, beagle, dog, plasma, po, 1000 mg/kg/day, Tmax, dog, EDI048 1000 mg/kg/day, day 14

molecular-string	Tmax, h
CNC(=O)c1ccc(-c2cnn3ccc(C(=O)N(C)c4ccc(Cl)c(C(=O)O)c4)cc23)cc1	1.15
COC(=O)c1cc(N(C)C(=O)c2ccn3ncc(-c4ccc(C(=O)O)cc4)c3c2)ccc1Cl	2.2
CNC(=O)c1ccc(-c2cnn3ccc(C(=O)N(C)c4ccc(Cl)c(C(=O)OC)c4)cc23)cc1	0.75

###

test: In vivo pharmacokinetic analysis; set-up: species or system mouse; settings: male, C57BL/6, mouse, plasma, po, 10 mg/kg

molecular-string	AUC, µM·h
CNC(=O)c1ccc(-c2cnn3ccc(C(=O)N(C)c4ccc(Cl)c(C(=O)OC)c4)cc23)cc1	0.0204
CNC(=O)c1ccc(-c2cnn3ccc(C(=O)N(C)c4ccc(Cl)c(C(=O)O)c4)cc23)cc1	0.092

###

assay: In vivo pharmacokinetic analysis; parameters: species or system mouse; conditions: male, C57BL/6, mouse, plasma, po, 10 mg/kg

molecular-string	Tmax
CNC(=O)c1ccc(-c2cnn3ccc(C(=O)N(C)c4ccc(Cl)c(C(=O)OC)c4)cc23)cc1	1 h

###

biological target: CYP2C9 (Homo sapiens)
Sequence (P11712 whole entry): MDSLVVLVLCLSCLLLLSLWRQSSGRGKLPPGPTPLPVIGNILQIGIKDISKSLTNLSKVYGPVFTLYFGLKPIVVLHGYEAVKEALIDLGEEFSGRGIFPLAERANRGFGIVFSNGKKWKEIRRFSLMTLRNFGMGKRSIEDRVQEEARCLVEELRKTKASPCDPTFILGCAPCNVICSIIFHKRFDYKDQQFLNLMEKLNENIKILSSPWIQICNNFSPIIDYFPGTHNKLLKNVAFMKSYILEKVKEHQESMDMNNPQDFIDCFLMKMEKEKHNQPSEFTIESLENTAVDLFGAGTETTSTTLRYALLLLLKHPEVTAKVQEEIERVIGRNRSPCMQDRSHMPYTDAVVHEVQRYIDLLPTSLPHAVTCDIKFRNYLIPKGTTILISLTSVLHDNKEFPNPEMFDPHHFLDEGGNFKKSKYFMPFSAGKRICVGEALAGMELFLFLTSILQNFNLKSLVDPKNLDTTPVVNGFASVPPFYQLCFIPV
As shown below, each of these compounds has a reported IC50 value.

compound	result-comparator	IC50 (nM)
CNC(=O)c1ccc(-c2cnn3ccc(C(=O)N(C)c4ccc(Cl)c(C(=O)OC)c4)cc23)cc1	=	2510
CN(C(=O)c1ccn2ncc(-c3ccc(C(N)=O)cc3)c2c1)c1ccc(C#N)cn1 [KDU731, reference compound]	>	4800

###

experiment: In vivo pharmacokinetic analysis; conditions: male, Beagle, dog, plasma, po, 0.3 mg/kg
metric-name: AUC

molecular-string	metric-name	observed-result
CNC(=O)c1ccc(-c2cnn3ccc(C(=O)N(C)c4ccc(Cl)c(C(=O)OC)c4)cc23)cc1	AUC	11.8 nM·h
CNC(=O)c1ccc(-c2cnn3ccc(C(=O)N(C)c4ccc(Cl)c(C(=O)O)c4)cc23)cc1	AUC	4.7 nM·h

###

Below: a set of entries, each annotated with reported solubility.
assay: High-throughput equilibrium solubility; assay type: physicochemical; details: pH 6.8, aqueous buffer, thermodynamic from solid

compound	units-label	solubility
CNC(=O)c1ccc(-c2cnn3ccc(C(=O)N(C[C@H]4CCC(=O)O4)c4ccc(OC(F)(F)F)cc4)cc23)cc1	µM	37
CNC(=O)c1ccc(-c2cnn3ccc(C(=O)N(CC(=O)O)c4ccc(Cl)cc4)cc23)cc1	µM	708
CN(C(=O)c1ccn2ncc(-c3ccc(C(N)=O)cc3)c2c1)c1ccc(C#N)cn1 [KDU731, reference compound]	µM	19
CNC(=O)c1ccc(-c2cnn3ccc(C(=O)N(CCC(=O)OCC(=O)N(C)C)c4ccc(Cl)cc4)cc23)cc1	µM	11
COC(=O)c1cc(Cl)ccc1N(C)C(=O)c1ccn2ncc(-c3ccc(C(N)=O)cc3)c2c1	µM	110
CCOC(=O)CN(C(=O)c1ccn2ncc(-c3ccc(C(=O)NC)cc3)c2c1)c1ccc(Cl)cc1	µM	31

###

# Lookup of reported half-life keyed by entry
experiment: Hepatocytes metabolic stability; type: in vitro ADME; conditions: mouse, hepatocytes

compound	result-comparator	half-life (min)
CN(C(=O)c1ccn2ncc(-c3ccc(C(N)=O)cc3)c2c1)c1ccc(C#N)cn1 [KDU731, reference compound]	>	175
COC(=O)c1cc(Cl)ccc1N(C)C(=O)c1ccn2ncc(-c3ccc(C(N)=O)cc3)c2c1	=	4
CNC(=O)c1ccc(-c2cnn3ccc(C(=O)N(CC(=O)O)c4ccc(Cl)cc4)cc23)cc1	=	35.8
CCOC(=O)CN(C(=O)c1ccn2ncc(-c3ccc(C(=O)NC)cc3)c2c1)c1ccc(Cl)cc1	=	13.4

###

assay: In vivo pharmacokinetics, all tested preclinical species; details: male, mouse, rat, dog, plasma, po

molecular-string	bioavailability
CNC(=O)c1ccc(-c2cnn3ccc(C(=O)N(C)c4ccc(Cl)c(C(=O)OC)c4)cc23)cc1	0.4 to 5.6%

###

// log10 of half-life lookup, one value per entry
assay: Stability in intestinal S9 fraction; format: in vitro ADME; conditions: mouse
metric-name: log10 of half-life (log10 of the value in h)

molecular-string	observed-result
CNC(=O)c1ccc(-c2cnn3ccc(C(=O)N(C[C@H]4CCC(=O)O4)c4ccc(OC(F)(F)F)cc4)cc23)cc1	0.20
CNC(=O)c1ccc(-c2cnn3ccc(C(=O)N(CCC(=O)OCC(=O)N(C)C)c4ccc(Cl)cc4)cc23)cc1	-0.82
COC(=O)c1cc(Cl)ccc1N(C)C(=O)c1ccn2ncc(-c3ccc(C(N)=O)cc3)c2c1	0.00
CNC(=O)c1ccc(-c2cnn3ccc(C(=O)N(C)c4ccc(Cl)c(C(=O)OC)c4)cc23)cc1	-0.12
CCOC(=O)CN(C(=O)c1ccn2ncc(-c3ccc(C(=O)NC)cc3)c2c1)c1ccc(Cl)cc1	0.30

###

# IC50 per entry for CYP2D6 (Homo sapiens, UniProt P10635)
metric-name: IC50

compound	observed-result
CN(C(=O)c1ccn2ncc(-c3ccc(C(N)=O)cc3)c2c1)c1ccc(C#N)cn1 [KDU731, reference compound]	> 50 µM
CNC(=O)c1ccc(-c2cnn3ccc(C(=O)N(C)c4ccc(Cl)c(C(=O)OC)c4)cc23)cc1 [EDI048]	> 25 µM

###

Parameter CC50 at 96 h: see the listing below.
assay: Cytotoxicity assay; type: cell-based, human; settings: human, HepG2 cells (ATCC CRL-10741), HepG2 CC50, 96 h

compound	result-comparator	CC50 at 96 h (µM)
CCOC(=O)CN(C(=O)c1ccn2ncc(-c3ccc(C(=O)NC)cc3)c2c1)c1ccc(Cl)cc1 [Compound 1]	=	14.7
COC(=O)c1cc(N(C)C(=O)c2ccn3ncc(-c4ccc(C(=O)O)cc4)c3c2)ccc1Cl [Compound 7]	>	100
CNC(=O)c1ccc(-c2cnn3ccc(C(=O)N(C)c4ccc(Cl)c(C(=O)O)c4)cc23)cc1 [Compound 6]	>	100
CC(=O)Oc1ccccc1C(=O)Nc1ncc([N+](=O)[O-])s1 [NTZ, Nitazoxanide, reference compound]	=	34.9
CNC(=O)c1ccc(-c2cnn3ccc(C(=O)N(CC(=O)O)c4ccc(Cl)cc4)cc23)cc1 [Compound 2]	>	100
CNC(=O)c1ccc(-c2cnn3ccc(C(=O)N(CCC(=O)OCC(=O)N(C)C)c4ccc(Cl)cc4)cc23)cc1 [Compound 3]	=	38.2
COC(=O)c1cc(Cl)ccc1N(C)C(=O)c1ccn2ncc(-c3ccc(C(N)=O)cc3)c2c1 [Compound 5]	>	100
CNC(=O)c1ccc(-c2cnn3ccc(C(=O)N(C[C@H]4CCC(=O)O4)c4ccc(OC(F)(F)F)cc4)cc23)cc1 [Compound 4]	=	32.2
CNC(=O)c1ccc(-c2cnn3ccc(C(=O)N(C)c4ccc(Cl)c(C(=O)OC)c4)cc23)cc1 [EDI048]	=	28.1

###

assay: High-throughput equilibrium solubility; assay type: physicochemical; settings: FaSSIF, thermodynamic from solid
metric-name: solubility

compound	metric-name	observed-result
CNC(=O)c1ccc(-c2cnn3ccc(C(=O)N(CC(=O)O)c4ccc(Cl)cc4)cc23)cc1	solubility	1000 µM
CNC(=O)c1ccc(-c2cnn3ccc(C(=O)N(CCC(=O)OCC(=O)N(C)C)c4ccc(Cl)cc4)cc23)cc1	solubility	355 µM
COC(=O)c1cc(Cl)ccc1N(C)C(=O)c1ccn2ncc(-c3ccc(C(N)=O)cc3)c2c1	solubility	147 µM
CN(C(=O)c1ccn2ncc(-c3ccc(C(N)=O)cc3)c2c1)c1ccc(C#N)cn1 [KDU731, reference compound]	solubility	48 µM
CCOC(=O)CN(C(=O)c1ccn2ncc(-c3ccc(C(=O)NC)cc3)c2c1)c1ccc(Cl)cc1	solubility	86 µM
